target_system: AKR1C3 (Homo sapiens (Human))
Sequence (P42330 whole entry): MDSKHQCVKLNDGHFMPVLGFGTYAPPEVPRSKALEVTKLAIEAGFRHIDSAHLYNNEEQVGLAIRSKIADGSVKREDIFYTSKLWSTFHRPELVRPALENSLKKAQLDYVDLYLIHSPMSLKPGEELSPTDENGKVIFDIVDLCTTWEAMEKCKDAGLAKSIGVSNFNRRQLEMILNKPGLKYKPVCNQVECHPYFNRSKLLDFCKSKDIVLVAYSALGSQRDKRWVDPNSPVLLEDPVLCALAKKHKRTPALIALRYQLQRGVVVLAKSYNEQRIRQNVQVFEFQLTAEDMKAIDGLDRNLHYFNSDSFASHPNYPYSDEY
protocol_summary: AKR1C3 enzyme assay (coumberone reduction, fluorescence)
Assay type: biochemical
protocol_conditions: recombinant human AKR1C3, coumberone 0.3 μM, NADPH 10 μM; read-out: AKR1C3 enzyme inhibition IC50
pIC50: −log10 of the molar value.
value_type: pIC50

> print(dat)
                               input.smiles                  target.system  value.type  result.number
1  C[C@]12CC[C@@H]3c4ccc(C(=O)NCCS(N)(=O)=O)cc4CC[C@H]3[C@@H]1CC=C2c1cccnc1  AKR1C3 (Homo sapiens (Human))       pIC50           8.05
2  COCCNC(=O)c1ccc2c(c1)CC[C@@H]1[C@@H]2CC[C@]2(C)C(c3cncc(F)c3)=CC[C@@H]12  AKR1C3 (Homo sapiens (Human))       pIC50           8.10
3  C[C@]12CC[C@@H]3c4ccc(C(N)=O)cc4CC[C@H]3[C@@H]1CC=C2c1cncc(F)c1  AKR1C3 (Homo sapiens (Human))       pIC50           8.40
4  CC1(CNC(=O)c2ccc3c(c2)CC[C@@H]2[C@@H]3CC[C@]3(C)C(c4cncc(F)c4)=CC[C@@H]23)COC1  AKR1C3 (Homo sapiens (Human))       pIC50           8.15
5  C[C@]12CC[C@@H]3c4ccc(C(=O)NCCC(N)=O)cc4CC[C@H]3[C@@H]1CC=C2c1cncc(F)c1  AKR1C3 (Homo sapiens (Human))       pIC50           8.30
6  C[C@]12CC[C@@H]3c4ccc(C(=O)NC[C@@H](O)CO)cc4CC[C@H]3[C@@H]1CC=C2c1cncc(F)c1  AKR1C3 (Homo sapiens (Human))       pIC50           8.22

Values were extracted from patent US9714266B2.
